assayed-target: Polyunsaturated fatty acid lipoxygenase ALOX12 (Homo sapiens) (UniProt P18054)
Sequence (P18054 whole entry, looked up): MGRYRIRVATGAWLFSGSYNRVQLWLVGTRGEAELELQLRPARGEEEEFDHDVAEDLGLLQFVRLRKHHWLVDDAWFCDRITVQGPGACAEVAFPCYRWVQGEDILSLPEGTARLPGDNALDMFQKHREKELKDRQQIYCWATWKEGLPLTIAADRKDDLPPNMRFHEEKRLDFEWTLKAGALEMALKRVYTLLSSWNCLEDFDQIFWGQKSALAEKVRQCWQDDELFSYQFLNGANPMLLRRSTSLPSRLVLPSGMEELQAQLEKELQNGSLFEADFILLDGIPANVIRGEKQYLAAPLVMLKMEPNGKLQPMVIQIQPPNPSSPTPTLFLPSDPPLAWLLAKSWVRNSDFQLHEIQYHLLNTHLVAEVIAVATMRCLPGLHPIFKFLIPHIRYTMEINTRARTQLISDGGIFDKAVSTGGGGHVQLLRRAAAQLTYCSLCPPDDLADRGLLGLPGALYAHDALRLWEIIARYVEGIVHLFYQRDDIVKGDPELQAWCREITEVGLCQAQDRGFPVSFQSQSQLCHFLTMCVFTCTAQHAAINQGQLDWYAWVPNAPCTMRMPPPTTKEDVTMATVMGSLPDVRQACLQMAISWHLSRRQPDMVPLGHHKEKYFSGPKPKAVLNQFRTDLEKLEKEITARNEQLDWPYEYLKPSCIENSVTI
experiment: Confirmatory qHTS assay for inhibitors of human arachidonate 12S-lipoxygenase (ALOX12): Round 2
experimental-context: purified human 12-LOX, xylenol orange absorbance; series mostly up to 125 µM
The campaign covered roughly 1,100 compounds. About 70 (6%) were called active. Inconclusive results (about 22%) are left out. The call rests on the fitted dose curve; in most records, active means well fitted curve in the direction sought with a large enough effect; inconclusive means small, poorly fitted or top-dose-only effect, or another doubt; inactive means no such curve, though single readings can be large or run the other way. Shown is part of a subset that was picked to be rich in actives.
Lab note: assign the record to one of YES = active, NO = inactive

Use the examples below as a reference point.
O=[S+]([O-])(c1ccccc1)N1CC(Oc2ccc(F)c(F)c2)C1 = NO
CNCc1ccccc1OC(F)(F)F = NO

Q) So what was the verdict on COc1ccccc1CNC(=O)Nc1cccs1 in this test?
A) YES

Q) So what was the verdict on COc1ccc(C(=O)N2CC(Oc3ccc4c(c3)OCO4)C2)cc1 in this test?
A) NO

Q) So what was the verdict on Cn1nc(C2CCCN2)c2c(C(=O)NCc3cccs3)cc(C3CC3)nc21 (stereo unspecified) in this test?
A) NO

Q) So what was the verdict on CC(C)(N)C(=O)N1CCCC(N2CCN(Cc3ccc4c(c3)OCO4)CC2)C1 (stereo unspecified) in this test?
A) NO

Q) So what was the verdict on CN1CC(=O)N(C2CCCNC2)Cc2c(NCC3CCCCCC3)ncnc21 (stereo unspecified) in this test?
A) NO

Q) So what was the verdict on Cn1nc(C2CCCN2)c2c(C(=O)NCc3ccc(F)cc3)cc(C3CC3)nc21 (stereo unspecified) in this test?
A) NO

Q) So what was the verdict on Cn1ccnc1C(O)c1cc2n(n1)CCN(S(=O)(=O)C1CC1)C2 (stereo unspecified) in this test?
A) NO

Q) So what was the verdict on COc1cccc(N2C(=O)NC(=NC3CCCCC3)C23CCCN([S+](=O)([O-])c2cccs2)C3)c1 (stereo unspecified) in this test?
A) NO

Q) So what was the verdict on CNC(C)c1cccc(OC)c1 (stereo unspecified) in this test?
A) NO

---

assayed-target: Polyunsaturated fatty acid lipoxygenase ALOX12 (Homo sapiens) (UniProt P18054)
experiment: Confirmatory qHTS assay for inhibitors of human arachidonate 12S-lipoxygenase (ALOX12): Round 2; further: potency means the concentration at half of the fitted maximal effect
experimental-context: purified human 12-LOX, xylenol orange absorbance; series mostly up to 125 µM
Hit rate of the full screen: of about 1,100 compounds, about 70 (6%) were called active. Another 22% or so got no clear call; they are omitted. The sample as a whole holds a higher share of actives than the screen did.
parameter-measured: Potency

O=C1NCc2ccccc2CC12CCN(Cc1ccc(F)c(Cl)c1)CC2 = inactive
O=C1N[C@@H]2CCN(S(=O)(=O)c3ccc(Cl)cc3)[C@@H]2C(=O)N1c1ccc(Oc2ccccc2)cc1 = 7.94 µM (active)
COc1ccc(CN2Cc3[nH]cnc3C[C@H]2c2nc(-c3ccncc3)no2)cc1 = inactive
CN1CC(=O)N(C2CCCNCC2)Cc2c(NCC3CC3)ncnc21 (stereo unspecified) = inactive

O=C1Nc2ccccc2CN(CC2CCCCC2)C12CCNCC2 tested on Polyunsaturated fatty acid lipoxygenase ALOX12 (Homo sapiens) (UniProt P18054) gave Potency: 49.4 µM (active)

---

assayed-target: Polyunsaturated fatty acid lipoxygenase ALOX12 (Homo sapiens) (UniProt P18054)
experiment: Confirmatory qHTS assay for inhibitors of human arachidonate 12S-lipoxygenase (ALOX12): Round 2
experimental-context: purified human 12-LOX, xylenol orange absorbance; series mostly up to 125 µM
Out of some 1,100 compounds screened, about 70 (6%) were called active. Roughly 22% stayed inconclusive and do not appear here. Calls follow the shape of the dose curve; as a rule, active = well fitted curve in the direction sought with a large enough effect; inconclusive = small, poorly fitted or top-dose-only effect, or another doubt; inactive = no such curve, though single readings can be large or run the other way. Shown is part of a subset that was picked to be rich in actives.
Lab note: assign the record to one of True = active, False = inactive

Q) So what was the verdict on O=C(c1ccc(Cl)cc1)N1CC2(CCCN(Cc3ccccn3)C2)Cc2ccccc21 (configuration not stated) in this test?
A) False

Q) So what was the verdict on CCCC(=O)N1Cc2ccccc2CC2(CCN(Cc3ccc(O)cc3)C2)C1 (configuration not stated) in this test?
A) False

Q) So what was the verdict on CC(=O)NC1(C)CCN(Cc2cnc(-c3ccccc3OCc3ccccc3)s2)CC1 in this test?
A) True

Q) So what was the verdict on CC(=O)NC(c1cccs1)c1cc(Br)c2cccnc2c1O (configuration not stated) in this test?
A) False

Q) So what was the verdict on CC(=O)N1CC2(CCCN(CC3CCCCC3)C2)Cc2ccccc21 (configuration not stated) in this test?
A) False

Q) So what was the verdict on CC(=O)N1Cc2ccccc2CC2(CCN(Cc3ccncc3)C2)C1 (configuration not stated) in this test?
A) False

Q) So what was the verdict on Cc1cc(C(=O)NC2CCNCC2)c2c(C3CCNCC3)noc2n1 in this test?
A) False

Q) So what was the verdict on CCOC(=O)N1CCC(N2CCCC(CCC(=O)Nc3ccc(OC)c(Cl)c3)C2)CC1 (configuration not stated) in this test?
A) True

src = PubChem BioAssay AID1671189
